// data source = patent US20050209278A1

// values below are reported pKi
TARGET_OR_SYSTEM: MMP-1 (Homo sapiens, UniProt P03956)
Construct: made in house; host or cells: MMP-1-transfected HT-1080 cells (spent media)
Sequence (P03956 100-469): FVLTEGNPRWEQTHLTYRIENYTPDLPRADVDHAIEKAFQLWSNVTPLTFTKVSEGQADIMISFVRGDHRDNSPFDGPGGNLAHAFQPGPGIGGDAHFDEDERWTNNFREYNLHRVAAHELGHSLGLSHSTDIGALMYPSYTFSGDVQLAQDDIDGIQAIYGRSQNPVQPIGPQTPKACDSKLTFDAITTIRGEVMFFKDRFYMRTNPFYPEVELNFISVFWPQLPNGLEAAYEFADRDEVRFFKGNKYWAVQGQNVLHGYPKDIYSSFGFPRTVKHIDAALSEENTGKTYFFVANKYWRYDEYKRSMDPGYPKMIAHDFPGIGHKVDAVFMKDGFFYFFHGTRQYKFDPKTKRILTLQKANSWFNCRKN
ASSAY_NOTES: MMP-1 inhibition (in vitro Ki)
Format: biochemical
STATED_CONDITIONS: Table 9; read-out: MMP-1 Ki (IC-50)
Remember the convention: pKi equals -log10 of concentration in molar.

Reference set, count: 5
COMPOUND	TARGET_OR_SYSTEM	OBSERVED_RESULT
O=C(NO)C1(S(=O)(=O)N2CCN(c3ccc(-c4cccnc4)c(F)c3)CC2)CCOCC1 [Example A195]	MMP-1 (Homo sapiens, UniProt P03956)	5.80
CN(C(=O)CCCCC1CCN(S(=O)(=O)C2(C(=O)NO)CCOCC2)CC1)c1ccc(OC(F)(F)F)cc1 [Example A163]	MMP-1 (Homo sapiens, UniProt P03956)	5.83
CC1(C)O[C@H]2C[C@@](C(=O)NO)(S(=O)(=O)N3CCC(c4ccc(CCC(F)(F)C(F)(F)F)cn4)CC3)C[C@H]2O1 [Example A73]	MMP-1 (Homo sapiens, UniProt P03956)	6.15
O=C(NO)C1(S(=O)(=O)N2CCN(c3ccc(CCC(F)(F)F)cn3)CC2)CCOCC1 [Example A184]	MMP-1 (Homo sapiens, UniProt P03956)	5.15
O=C(/C=C/C=C/C1CCN(S(=O)(=O)C2(C(=O)NO)CCOCC2)CC1)N1CCOCC1 [Example A208]	MMP-1 (Homo sapiens, UniProt P03956)	5.13

Incoming: Look up pKi for this compound: CC(C)COc1cnc(C2CCN(S(=O)(=O)C3(C(=O)NO)CCOCC3)CC2)cn1 [Example A132]
Outgoing: 5.14

Incoming: Note, next up: Cn1cc(-c2ccc(C3CCN(S(=O)(=O)C4(C(=O)NO)CCOCC4)CC3)nc2)cn1 [Example A201]
Outgoing: 5.23

Incoming: Note, next up: O=C(NO)C1(S(=O)(=O)N2CCC(c3ccc(CCC4CCCC4)cn3)CC2)CCOCC1 [Example A106]
Outgoing: 5.26

Incoming: Note, next up: O=C(NO)C1(S(=O)(=O)N2CCC(c3cnc(OCC(F)(F)C(F)F)cn3)CC2)CCOCC1 [Example A206]
Outgoing: 5.35

Incoming: Note, next up: O=C(/C=C/C=C/C1CCN(S(=O)(=O)C2(C(=O)NO)CCOCC2)CC1)N1CCc2ccccc2C1 [Example A75]
Outgoing: 5.21

====

TARGET_OR_SYSTEM: MMP-13 (Homo sapiens)
Construct: made in house; host or cells: baculovirus / insect cells
ASSAY_NOTES: MMP-13 inhibition (in vitro Ki)
Assay type: biochemical
STATED_CONDITIONS: Table 9; read-out: MMP-13 Ki (IC-50)
EXPERIMENTAL_READOUT: Ki (nM)
Answer format: numeric, nM implied, no suffix.

ITEM_SMILES	UNITS_OF_MEASURE	Ki
O=C(NO)C1(S(=O)(=O)N2CCC(CCc3ccccc3)CC2)CCOCC1	nM	0.95

Incoming: Look up Ki for this molecule: "CNC(=O)CCCCC1CCN(S(=O)(=O)C2(C(=O)NO)CCOCC2)CC1"
Outgoing: 8.19

Incoming: Note, next up: "O=C(NO)C1(S(=O)(=O)N2CCC(c3ccc(CCC(F)(F)C(F)(F)F)cn3)CC2)CCN(c2ncccn2)CC1"
Outgoing: 0.437

Incoming: Note, next up: "O=C(NO)C1(S(=O)(=O)N2CCC(CCCc3nc(-c4ccc(OC(F)(F)F)cc4)no3)CC2)CCOCC1"
Outgoing: 40.9

====

TARGET_OR_SYSTEM: MMP-14 (Homo sapiens)
Construct: The catalytic domain enzyme was expressed in E. coli inclusion bodies, solubilized in urea; made in house
ASSAY_NOTES: In vitro MMP inhibition, Ki determination (fluorogenic substrate II)
Assay type: biochemical
STATED_CONDITIONS: value not in parenthesis; read-out: MMP-14 Ki
EXPERIMENTAL_READOUT: pKi
Remember the convention: pKi equals -log10 of concentration in molar.

Reference set, count: 2
COMPOUND	OBSERVED_RESULT
O=C(NO)C1(S(=O)(=O)N2CCN(c3ccc(SC(F)(F)F)cc3)CC2)CCN(Cc2ccccc2)CC1 [Example 152]	5.65
CCCc1ccc(N2CCN(S(=O)(=O)C3(C(=O)NO)CCN(c4ccc(C)cc4)CC3)CC2)cc1 [Example 171]	5.39

Please look at the following compound next.
Incoming: Look up pKi for this compound: COCCN1CCC(C(=O)NO)(S(=O)(=O)N2CCN(c3ccc(OCCCC(F)(F)F)cc3F)CC2)CC1 [Example 102]
Outgoing: 5.15

====

TARGET_OR_SYSTEM: MMP-9 (Homo sapiens, UniProt P14780)
Construct: made in house; host or cells: MMP-9-transfected HT1080 cells (spent media)
Sequence (P14780 107-707 limits assumed): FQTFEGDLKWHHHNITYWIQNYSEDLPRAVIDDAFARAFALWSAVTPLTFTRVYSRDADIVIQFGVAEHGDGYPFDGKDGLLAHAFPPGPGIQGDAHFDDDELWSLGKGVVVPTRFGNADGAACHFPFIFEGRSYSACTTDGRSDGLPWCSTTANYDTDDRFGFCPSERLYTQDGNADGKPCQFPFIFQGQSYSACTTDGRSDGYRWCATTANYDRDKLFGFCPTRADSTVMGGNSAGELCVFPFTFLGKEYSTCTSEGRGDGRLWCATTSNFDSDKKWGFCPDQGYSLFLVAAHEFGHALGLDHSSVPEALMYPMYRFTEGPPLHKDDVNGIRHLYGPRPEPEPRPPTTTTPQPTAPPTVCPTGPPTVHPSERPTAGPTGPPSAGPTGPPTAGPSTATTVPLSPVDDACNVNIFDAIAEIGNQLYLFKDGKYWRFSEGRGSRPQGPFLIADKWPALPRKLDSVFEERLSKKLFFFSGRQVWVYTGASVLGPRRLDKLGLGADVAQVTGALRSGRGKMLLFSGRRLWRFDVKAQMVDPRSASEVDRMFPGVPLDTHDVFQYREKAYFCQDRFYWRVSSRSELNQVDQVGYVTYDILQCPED
ASSAY_NOTES: In vitro MMP inhibition, Ki determination (fluorogenic substrate II)
Format: biochemical
STATED_CONDITIONS: value not in parenthesis
EXPERIMENTAL_READOUT: log10(Ki) (log10 of the value in nM)
Please keep in mind that the values are log10 of Ki expressed in nM.

Reference set, count: 10
COMPOUND	TARGET_OR_SYSTEM	log10(Ki)
COCCN1CCC(C(=O)NO)(S(=O)(=O)N2CCN(c3ccc(C(C)=O)cc3)CC2)CC1	MMP-9 (Homo sapiens, UniProt P14780)	1.46
CCc1ccc(N2CCN(S(=O)(=O)C3(C(=O)NO)CCOCC3)CC2)nc1	MMP-9 (Homo sapiens, UniProt P14780)	0.42
CCCCCCCCCc1cnc(N2CCN(S(=O)(=O)C3(C(=O)NO)CCOCC3)CC2)nc1 [Example 110]	MMP-9 (Homo sapiens, UniProt P14780)	1.61
COc1ccc(N2CCN(S(=O)(=O)C3(C(=O)NO)CCOCC3)CC2)nc1 [Example 109]	MMP-9 (Homo sapiens, UniProt P14780)	2.65
CCCCOc1ccc(N2CCN(S(=O)(=O)C3(C(=O)NO)CCN(c4nccs4)CC3)CC2)cc1	MMP-9 (Homo sapiens, UniProt P14780)	0.63
O=C(NO)C1(S(=O)(=O)N2CCN(c3ncc(-c4ccc(Cl)cc4)cn3)CC2)CCOCC1	MMP-9 (Homo sapiens, UniProt P14780)	-0.28
CCCCOc1ccc(N2CCN(S(=O)(=O)C3(C(=O)NO)CCN(c4ccccn4)CC3)CC2)cc1	MMP-9 (Homo sapiens, UniProt P14780)	0.77
CCCCCc1ccc(N2CCN(S(=O)(=O)C3(C(=O)NO)CCN(S(N)(=O)=O)CC3)CC2)cc1	MMP-9 (Homo sapiens, UniProt P14780)	2.39
O=C(NO)C1(S(=O)(=O)N2CCN(c3ccc(-c4ccc(Cl)cc4)cn3)CC2)CCOCC1	MMP-9 (Homo sapiens, UniProt P14780)	0.85
CCCCc1ccc(C2CCN(S(=O)(=O)C3(C(=O)NO)CCN(CCOC)CC3)CC2)s1	MMP-9 (Homo sapiens, UniProt P14780)	-0.46

Incoming: Look up log10(Ki) for this compound: "CCCCOc1ccc(N2CCN(S(=O)(=O)C3(C(=O)NO)CCN(C(=O)N4CCCC4)CC3)CC2)cc1"
Outgoing: -0.15

Incoming: Note, next up: "CCCCOc1ccc(N2CCN(S(=O)(=O)C3(C(=O)NO)CCN(c4ccc(C)nc4)CC3)CC2)cc1"
Outgoing: 0.48

Incoming: Note, next up: "O=C(NO)C1(S(=O)(=O)N2CCN(c3ccc(C(F)(F)F)cn3)CC2)CCOCC1"
Outgoing: 1.16

Incoming: Note, next up: "CCCCOc1ccc(N2CCN(S(=O)(=O)C3(C(=O)NO)CCN(c4ccc(OC)cc4)CC3)CC2)cc1"
Outgoing: 1.05

Incoming: Note, next up: "Cc1ccc(-c2ccc(N3CCN(S(=O)(=O)C4(C(=O)NO)CCOCC4)CC3)cc2)cc1"
Outgoing: 1.09

Incoming: Note, next up: "CCCCOc1ccc(N2CCN(S(=O)(=O)C3(C(=O)NO)CCN(C(=O)c4cc5ccccc5o4)CC3)CC2)cc1"
Outgoing: 1.38
